Target: Coagulation factor X (Homo sapiens)
Experiment: Tested in vitro for the inhibitory activity against Coagulation factor Xa
pIC50: −log10 of the molar value.
parameter: pIC50

• N=C(N)c1cccc(Oc2ccc(F)cc2NC(=O)c2ccc(-c3ccccc3S(N)(=O)=O)cc2)c1 = 8.35
• CS(=O)(=O)c1ccc(Oc2ccc3ccnc(N)c3c2)c(NC(=O)c2ccc(-c3ccccc3S(N)(=O)=O)cc2)c1 = 5.22
• Cc1ccc(NC(=O)c2ccc(-c3ccccc3S(N)(=O)=O)cc2)c(Oc2cccc(C(=N)N)c2)c1 = 8.00
• N=C(N)c1cccc(Oc2cc(N)ccc2C(=O)Nc2ccc(-c3ccccc3S(N)(=O)=O)cc2)c1 = 7.72
• COC(=O)CN(CCOc1cccc(C(=N)N)c1)C(=O)c1ccc(-c2ccccc2S(N)(=O)=O)cc1 = 7.89
• CC(COc1ccc2ccnc(N)c2c1)N1Cc2cc(-c3ccccc3S(N)(=O)=O)ccc2C1=O (stereo not drawn) = 7.60
• N=C(N)c1cccc(OCCNC(=O)c2ccc(-c3ccccc3S(N)(=O)=O)cc2)c1 = 8.12
• N=C(N)c1cccc(Oc2ccc(Cl)cc2C(=O)Nc2ccc(-c3ccccc3S(N)(=O)=O)cc2)c1 = 8.11

----------
Here's a batch of compounds along with measured IC50 for Plasminogen (Homo sapiens, UniProt P00747).
parameter: IC50 (µM)

- N=C(N)c1cccc(OCCNC(=O)c2ccc(-c3ccccc3S(N)(=O)=O)cc2)c1: 13
- N=C(N)c1cccc(Oc2ccccc2NC(=O)c2ccc(-c3ccccc3S(N)(=O)=O)cc2)c1: 43

----------
Target: Coagulation factor X (Homo sapiens, UniProt P00742)
Sequence (P00742 41-179 limits assumed): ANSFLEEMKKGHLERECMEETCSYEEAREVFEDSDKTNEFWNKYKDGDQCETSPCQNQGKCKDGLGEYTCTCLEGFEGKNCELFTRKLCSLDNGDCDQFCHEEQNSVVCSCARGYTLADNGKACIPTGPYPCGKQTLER
Sequence (P00742 235-488 limits assumed): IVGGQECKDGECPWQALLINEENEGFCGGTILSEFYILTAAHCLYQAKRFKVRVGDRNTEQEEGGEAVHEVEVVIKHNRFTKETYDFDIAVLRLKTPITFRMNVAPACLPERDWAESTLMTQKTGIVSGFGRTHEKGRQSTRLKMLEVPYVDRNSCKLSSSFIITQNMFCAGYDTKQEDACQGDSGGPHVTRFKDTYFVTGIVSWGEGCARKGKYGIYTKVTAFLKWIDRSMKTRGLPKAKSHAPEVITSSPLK
Experiment: Tested in vitro for the inhibitory activity against Coagulation factor Xa
parameter: IC50 (nM)

* Nc1nccc2ccc(Oc3ccc(F)cc3NC(=O)c3ccc(-c4ccccc4S(N)(=O)=O)cc3)cc12 | 1320
* N=C(N)c1cccc(OCC(Cc2ccccc2)NC(=O)c2ccc(-c3ccccc3S(N)(=O)=O)cc2)c1 (stereo not given) | 5.6
* COC(=O)c1ccc(Oc2cccc(C(=N)N)c2)c(NC(=O)c2ccc(-c3ccccc3S(N)(=O)=O)cc2)c1 | 2.5
* N=C(N)c1cccc(OCCN(CC(=O)O)C(=O)c2ccc(-c3ccccc3S(N)(=O)=O)cc2)c1 | 34
* Nc1nccc2ccc(Oc3ccc(C(F)(F)F)cc3NC(=O)c3ccc(-c4ccccc4S(N)(=O)=O)cc3)cc12 | 1810
* N=C(N)c1cccc(Oc2cc(Cl)ccc2NC(=O)c2ccc(-c3ccccc3S(N)(=O)=O)cc2)c1 | 1.6
* CC(=O)Nc1ccc(C(=O)Nc2ccc(-c3ccccc3S(N)(=O)=O)cc2)c(Oc2cccc(C(=N)N)c2)c1 | 61
* Nc1nccc2ccc(OCCN3Cc4cc(-c5ccccc5S(N)(=O)=O)ccc4C3=O)cc12 | 22
* N=C(N)c1cccc(Oc2ccccc2NC(=O)c2ccc(-c3ccccc3S(N)(=O)=O)cc2)c1 | 3.6
* N=C(N)c1cccc(OCCN(Cc2cccnc2)C(=O)c2ccc(-c3ccccc3S(N)(=O)=O)cc2)c1 | 11

----------
Target: Kallikrein-1 (Homo sapiens, UniProt P06870)
Sequence (P06870 whole entry): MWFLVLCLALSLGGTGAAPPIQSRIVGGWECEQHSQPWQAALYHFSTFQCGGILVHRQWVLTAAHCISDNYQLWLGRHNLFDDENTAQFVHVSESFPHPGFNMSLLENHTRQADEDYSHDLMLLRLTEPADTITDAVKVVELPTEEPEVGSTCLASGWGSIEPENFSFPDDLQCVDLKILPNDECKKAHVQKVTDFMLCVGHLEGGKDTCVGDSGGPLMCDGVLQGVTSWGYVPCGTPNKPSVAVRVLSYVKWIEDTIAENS
pIC50: −log10 of the molar value.
parameter: pIC50

- N=C(N)c1cccc(Oc2ccccc2NC(=O)c2ccc(-c3ccccc3S(N)(=O)=O)cc2)c1: 6.60

----------
Test: Bioavailability in rat was reported at the dose of 6 mg/kg in 25% PEG-300
Format: ADME, organism-based
Settings: in vivo
parameter: bioavailability

* Nc1nccc2ccc(OCCN3Cc4cc(-c5ccccc5S(N)(=O)=O)ccc4C3=O)cc12 | < 5%

----------
Test: Bioavailability in rat
Format: ADME, organism-based
Settings: in vivo
parameter: bioavailability (%)

• N=C(N)c1cccc(Oc2cc([N+](=O)[O-])ccc2C(=O)Nc2ccc(-c3ccccc3S(N)(=O)=O)cc2)c1 = 0.3
• N=C(N)c1cccc(Oc2ccc(C(=O)O)cc2NC(=O)c2ccc(-c3ccccc3S(N)(=O)=O)cc2)c1 = 5.5

----------
Here's a batch of compounds along with measured pIC50 for Tissue-type plasminogen activator (Homo sapiens).
pIC50: −log10 of the molar value.
parameter: pIC50

• N=C(N)c1cccc(Oc2ccccc2NC(=O)c2ccc(-c3ccccc3S(N)(=O)=O)cc2)c1 = 4.74
• N=C(N)c1cccc(OCCNC(=O)c2ccc(-c3ccccc3S(N)(=O)=O)cc2)c1 = 3.96

----------
Biological target: Prothrombin (Homo sapiens, UniProt P00734)
parameter: IC50

* N=C(N)c1cccc(Oc2ccccc2NC(=O)c2ccc(-c3ccccc3S(N)(=O)=O)cc2)c1 | > 11 µM

----------
Target: Coagulation factor X (Homo sapiens, UniProt P00742)
Test: Tested in vitro for the inhibitory activity against Coagulation factor Xa
pIC50: −log10 of the molar value.
Listing of entries alongside the reported pIC50.
parameter: pIC50

• CS(=O)(=O)Nc1ccc(Oc2cccc(C(=N)N)c2)c(C(=O)Nc2ccc(-c3ccccc3S(N)(=O)=O)cc2)c1 = 8.27
• CN(C)c1ccc(Oc2cccc(C(=N)N)c2)c(C(=O)Nc2ccc(-c3ccccc3S(N)(=O)=O)cc2)c1 = 8.00
• N=C(N)c1cccc(Oc2ccc(Br)cc2NC(=O)c2ccc(-c3ccccc3S(N)(=O)=O)cc2)c1 = 8.80
• N=C(N)c1cccc(Oc2ccccc2C(=O)Nc2ccc(-c3ccccc3S(N)(=O)=O)cc2)c1 = 8.14
• CNc1ccc(C(=O)Nc2ccc(-c3ccccc3S(N)(=O)=O)cc2)c(Oc2cccc(C(=N)N)c2)c1 = 7.92
• N=C(N)c1cccc(Oc2cc(Cl)ccc2C(=O)Nc2ccc(-c3ccccc3S(N)(=O)=O)cc2)c1 = 8.82
• N=C(N)c1cccc(OCCN(Cc2ccoc2)C(=O)c2ccc(-c3ccccc3S(N)(=O)=O)cc2)c1 = 8.11
• Nc1nccc2ccc(OCC(c3ccccc3)N3Cc4cc(-c5ccccc5S(N)(=O)=O)ccc4C3=O)cc12 (configuration not stated) = 6.21
• Nc1nccc2ccc(Oc3ccccc3NC(=O)c3ccc(-c4ccccc4S(N)(=O)=O)cc3)cc12 = 6.19
• N=C(N)c1cccc(Oc2cc(Br)ccc2NC(=O)c2ccc(-c3ccccc3S(N)(=O)=O)cc2)c1 = 8.68
• N=C(N)c1cccc(Oc2ccc(C(F)(F)F)cc2NC(=O)c2ccc(-c3ccccc3S(N)(=O)=O)cc2)c1 = 8.60
• Nc1nccc2ccc(OCC(Cc3ccccc3)N3Cc4cc(-c5ccccc5S(N)(=O)=O)ccc4C3=O)cc12 (configuration not stated) = 6.65
• N=C(N)c1cccc(OCCN2Cc3cc(-c4ccccc4S(N)(=O)=O)ccc3C2=O)c1 = 8.44
• N=C(N)c1cccc(Oc2cc(O)ccc2NC(=O)c2ccc(-c3ccccc3S(N)(=O)=O)cc2)c1 = 8.41
• N=C(N)c1cccc(Oc2cc(Br)ccc2C(=O)Nc2ccc(-c3ccccc3S(N)(=O)=O)cc2)c1 = 8.92
• CS(=O)(=O)c1ccc(Oc2cccc(C(=N)N)c2)c(NC(=O)c2ccc(-c3ccccc3S(N)(=O)=O)cc2)c1 = 8.74
• CC(COc1cccc(C(=N)N)c1)NC(=O)c1ccc(-c2ccccc2S(N)(=O)=O)cc1 (configuration not stated) = 7.80

----------
Listing of entries alongside the reported pIC50.
Target: Coagulation factor X (Homo sapiens)
Assay: Tested in vitro for the inhibitory activity against Coagulation factor Xa
pIC50: −log10 of the molar value.
parameter: pIC50

- N=C(N)c1cccc(OCCN(Cc2ccccc2)C(=O)c2ccc(-c3ccccc3S(N)(=O)=O)cc2)c1: 7.85
- N=C(N)c1cccc(Oc2ccc(N)cc2C(=O)Nc2ccc(-c3ccccc3S(N)(=O)=O)cc2)c1: 7.92
- COc1ccc(NC(=O)c2ccc(-c3ccccc3S(N)(=O)=O)cc2)c(Oc2cccc(C(=N)N)c2)c1: 8.80
- N=C(N)c1cccc(OCC(NC(=O)c2ccc(-c3ccccc3S(N)(=O)=O)cc2)c2ccccc2)c1 (stereo not drawn): 8.47
- CN(C)c1ccc(C(=O)Nc2ccc(-c3ccccc3S(N)(=O)=O)cc2)c(Oc2cccc(C(=N)N)c2)c1: 7.80
- CC(=O)Nc1ccc(Oc2cccc(C(=N)N)c2)c(C(=O)Nc2ccc(-c3ccccc3S(N)(=O)=O)cc2)c1: 8.11
- N=C(N)c1cccc(Oc2ccc(Br)cc2C(=O)Nc2ccc(-c3ccccc3S(N)(=O)=O)cc2)c1: 8.36
- N=C(N)c1cccc(Oc2cc([N+](=O)[O-])ccc2C(=O)Nc2ccc(-c3ccccc3S(N)(=O)=O)cc2)c1: 8.32
